- Test system: UACC-257
- Method Summary: NCI tumour cell line growth inhibition, 48 h
Active and inactive are the calls of the source. Cut-off read from the data, not from the text of the source: active = GI50 up to about 1.1 µM and inactive = higher.
Below: a set of entries, each annotated with reported GI50.

# count of solved cases: 6
>>> print(df.to_string())
                                   molecule               result
0  COC(=O)C1(C(=O)OC)CC2c3c(c4ccccc4n3C)CC(C1=O)N2Cc1ccccc1 (configuration not stated)  > 100 µM (inactive)
1  COc1ccc(-c2oc3cc(O)cc(O)c3c(=O)c2OC)cc1 [ERMANIN]   59.8 µM (inactive)
2  Cc1ccc(C(=O)c2nnc(C(=O)c3ccc(C)cc3)nn2)cc1   58.3 µM (inactive)
3  O=C1c2c(F)c(F)c(F)c(F)c2SC2=Nc3cccc4cccc(c34)N12   5.19 µM (inactive)
4  CN(CCNC(=O)c1nn(-c2ccccc2)c2c1Cc1ccccc1-2)CCNC(=O)c1nn(-c2ccccc2)c2c1Cc1ccccc1-2   1.79 µM (inactive)
5  O=C1NNC2NC(=O)C3(NN2C1=O)c1ccccc1-c1ccccc13 (configuration not stated)  > 100 µM (inactive)

Q) Recall the recorded GI50 for O=C1c2cccc(NCCNCCO)c2C(=O)c2cccc(NCCNCCO)c21 with UACC-257 and state it.
A) 3.04 µM (inactive)

Q) Recall the recorded GI50 for OCC1OC(c2cccc3cc(O)c(O)cc23)CC1O (configuration not stated) with UACC-257 and state it.
A) > 100 µM (inactive)

Q) Recall the recorded GI50 for CCN(CC)CCCC(C)NC(=O)c1ccc2c(c1)C(=O)c1ccccc1C2=O (configuration not stated) with UACC-257 and state it.
A) 11.9 µM (inactive)

Q) Recall the recorded GI50 for CC(C)(C)OC(=O)c1ccc(NCC2=C(Br)C(=O)C=CC2=O)cc1 with UACC-257 and state it.
A) 21.7 µM (inactive)

Q) Recall the recorded GI50 for COc1ccc(-c2nc3c(C(=O)NCCN(C)C)cccc3c3ccccc23)cc1 with UACC-257 and state it.
A) 1.89 µM (inactive)

Q) Recall the recorded GI50 for COc1ccc(C[C@@H]2OC3(C=CC(=O)C=C3)O[C@H]2Cc2ccc(OC)cc2)cc1 with UACC-257 and state it.
A) 1.46 µM (inactive)

Q) Recall the recorded GI50 for CCOC(=O)CC(=O)Nc1c(C(=O)OCC)sc2nc(SC)nc(Nc3ccc(OC)c(OC)c3)c12 with UACC-257 and state it.
A) > 100 µM (inactive)

====

- System: SW-620
- Method Summary: NCI tumour cell line growth inhibition, 48 h
Active and inactive are the calls of the source. No stated cut-off is given here; in the data, active = GI50 up to about 1.1 µM and inactive = higher.
Below: a set of entries, each annotated with reported GI50.

# count of solved cases: 5
>>> print(df.to_string())
                                   compound  assay_target  reported_property               result
0  COc1ccc(NC(=O)/C(Cc2cc(=O)oc3cc(O)ccc23)=N\NC(C)(C)C)c(OC)c1        SW-620               GI50  > 100 µM (inactive)
1         Cc1nc(C)c(N2CCN(C(=O)O)CC2)c(O)n1        SW-620               GI50  > 100 µM (inactive)
2  Cc1ccc(C(=O)N(C2CCCCC2)C2CCCCC2)cc1/N=N/N(C)C        SW-620               GI50   8.83 µM (inactive)
3     Cn1c(-c2ccccc2)cc(-c2cccs2)c1-c1cccs1        SW-620               GI50  > 100 µM (inactive)
4  CCOC(=O)/C(=C/NC(=S)Nc1c(CC)cccc1C(C)(C)C)C(=O)c1ccccc1        SW-620               GI50  > 100 µM (inactive)

Q) Requested read-out: GI50. Entry: CC(=O)Nc1ccccc1C=C1c2ccccc2-c2ccccc21
A) > 100 µM (inactive)

Q) Requested read-out: GI50. Entry: Cc1[nH]c2ccccc2c1C1Cc2ccccc2N1C(=O)/C=C/C(=O)O (stereo unspecified)
A) > 100 µM (inactive)

Q) Requested read-out: GI50. Entry: NC(=O)c1cc(C2OC(CO)C(O)C2O)nn1-c1ccc([N+](=O)[O-])cc1 (stereo unspecified)
A) 43.3 µM (inactive)

Q) Requested read-out: GI50. Entry: O=C1NC2=NOC(=O)NC2=NO1
A) > 200 µM (inactive)

Q) Requested read-out: GI50. Entry: Cc1ccc(NC(=O)C(=O)CC(=O)c2c(C)[n+]([O-])c3ccccc3[n+]2[O-])cc1C
A) 49.4 µM (inactive)

Q) Requested read-out: GI50. Entry: CCN1C(=O)C/C(=C\C(C)=O)Nc2ccccc21
A) > 100 µM (inactive)
